# tested-on: Muscarinic acetylcholine receptor M4 (Homo sapiens) (UniProt P08173)
# Sequence (P08173 whole entry, looked up): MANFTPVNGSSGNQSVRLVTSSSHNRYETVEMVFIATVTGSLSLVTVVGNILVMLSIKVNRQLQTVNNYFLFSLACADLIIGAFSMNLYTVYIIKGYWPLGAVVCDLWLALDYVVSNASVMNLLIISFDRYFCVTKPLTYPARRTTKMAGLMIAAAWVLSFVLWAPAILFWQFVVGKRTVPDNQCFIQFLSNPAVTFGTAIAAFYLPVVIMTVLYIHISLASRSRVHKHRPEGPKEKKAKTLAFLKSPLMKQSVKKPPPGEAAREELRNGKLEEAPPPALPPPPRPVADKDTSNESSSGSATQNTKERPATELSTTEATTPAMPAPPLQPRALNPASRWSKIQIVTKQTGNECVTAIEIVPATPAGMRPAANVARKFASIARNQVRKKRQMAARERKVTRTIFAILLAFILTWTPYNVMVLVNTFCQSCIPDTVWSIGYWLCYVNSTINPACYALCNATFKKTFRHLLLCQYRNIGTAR
# assay-comment: compounds altering M4/GIRK thallium flux, either direction, primary screen, M4 allosteric agonist project, cell-based, HEK293 M4/GIRK, BTC-AM (AID 625);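 also: thallium influx through GIRK channels coupled to M4 in HEK293 cells with BTC-AM dye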
# measurement-parameters: at 10 µM, actives lie on both sides
Binned fluorescence slope; ranges: range A: < 0.005; range B: ≥ 0.005 and < 0.006; range C: ≥ 0.006

INSERT INTO measurements (compound, label) VALUES
  ('CCC(C(=O)Nc1ncn[nH]1)(C(F)(F)F)C(F)(F)F', 'range C');

# bin lookup: classify Cc1cccc(N(CC(O)CN(C)C)S(=O)(=O)c2ccccc2)c1 (configuration not stated) by its fluorescence slope
range A

# bin lookup: classify CCOC(=O)CC(C#N)c1cn(C)c2ccccc12 (configuration not stated) by its fluorescence slope
range C

# bin lookup: classify `CC(NC(=O)NCCCC(=O)O)(C(F)(F)F)C(F)(F)F` by its fluorescence slope
range A

# bin lookup: classify CC(CCc1ccccc1)NCC(O)c1ccc(O)c(C(N)=O)c1 (configuration not stated) by its fluorescence slope
range A

# bin lookup: classify `COC(=O)CNC(=O)c1c(C)cc(=O)oc1C` by its fluorescence slope
range B

# bin lookup: classify `O=C(Nc1ccccc1C(=O)NCCCn1ccnc1)c1ccccc1` by its fluorescence slope
range B

# bin lookup: classify CCSc1nc(O)c(C2OC(=O)c3c2ccc(OC)c3OC)c(=O)n1-c1ccccc1 (configuration not stated) by its fluorescence slope
range C

# bin lookup: classify `CCc1cc2c(=O)c(-c3nc4ccccc4[nH]3)coc2cc1OC(=O)N1CCOCC1` by its fluorescence slope
range B

# bin lookup: classify `Cn1c(N2CCOCC2)nc2c1c(=O)n(Cc1ccc(Cl)cc1)c(=O)n2C` by its fluorescence slope
range A

# bin lookup: classify `CC(=O)Nc1ccc(Oc2ccc3nc(C)[nH]c3c2)cc1` by its fluorescence slope
range B

# bin lookup: classify C=CC(O)Cc1c(C)n[nH]c1C (configuration not stated) by its fluorescence slope
range B

# bin lookup: classify CCOC(=O)CSC1=C(C#N)C(c2ccc(C)cc2)C(C(=O)OC)C(=O)N1 (configuration not stated) by its fluorescence slope
range C

# bin lookup: classify `CCN1CCc2c(C#N)c(NCc3ccccc3)nc(NCCO)c2C1` by its fluorescence slope
range A

# bin lookup: classify `CCN(CC)CCOC(=O)C1(c2ccc(OC)c(OC)c2)CCCC1` by its fluorescence slope
range B

###

Reported inhibition values for a set of molecules
# assay-comment: inhibitors of E-selectin induction by TNFa, primary screen, imaging, HUVEC, immunofluorescence, MLSMR starter and 10KST1 sets (AID 487);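 as to inhibition: signal is fraction of cell area covered by stained E-selectin grains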
# measurement-parameters: HUVEC TNFalpha-induced E-selectin immunofluorescence imaging, at 2 µM; stronger effect = higher value
Just the number in %, nothing appended.

Please review the following examples before continuing.
INSERT INTO assay_data (molecule, units_label, reading) VALUES
  ('COc1ccccc1Cn1c2nc3ccccc3nc2c2c(=O)n(CC(C)C)cnc21', '%', -28.2),
  ('O=C(CSc1nnc(-c2ccccc2)c(-c2ccccc2)n1)N1CCOCC1', '%', -44.9),
  ('O=c1c(C=NCCCn2ccnc2)c(-c2ccccc2)[nH]n1-c1nc2ccccc2s1', '%', -108),
  ('CCCCCC1CC(CC#CCN2CCOCC2)C(=O)O1 (configuration not stated)', '%', -6.1),
  ('S=c1nc(-c2ccccc2)[nH]n1-c1ccccc1', '%', -90.9),
  ('CCCOc1ccc(-c2nnc(N)s2)cc1', '%', -31.6);

According to the records, this molecule `O=C(CCN1C(=O)c2ccccc2C1=O)OCN1C(=O)c2ccccc2C1=O` displays inhibition of -112

According to the records, this molecule `Nc1ccc2oc3ncccc3c(=O)c2c1` displays inhibition of -52.6

According to the records, this molecule `CCOC(=O)c1ccc(NC(=O)Cn2nnc3ccccc32)cc1` displays inhibition of -17.3

According to the records, this molecule `CCOC(=O)CSc1nc(N(C)C)nc(N(C)C#N)n1` displays inhibition of -140

According to the records, this molecule `CC(C)Cc1nc(NCCN2CCOCC2)c(C#N)c2c1COC(C)(C)C2` displays inhibition of -114

According to the records, this molecule CCOc1ccc(C2/C(=C(/O)c3ccc(F)cc3)C(=O)C(=O)N2CCCN(C)C)cc1 (configuration not stated) displays inhibition of -17

According to the records, this molecule `O=C1CSC(=Nc2ccc(O)cc2)N1c1ccc(O)cc1` displays inhibition of -49.6

According to the records, this molecule `O=C(NC1CCCCC1)Nn1c(-c2ccccc2)nc2ccccc2c1=O` displays inhibition of -60.6

According to the records, this molecule `O=c1[nH]c(CN2CCCCC2)nc2c1C1(CCCCC1)Cc1ccccc1-2` displays inhibition of -4.9

According to the records, this molecule `CCCCOc1ccccc1C(=O)NCCCC(=O)O` displays inhibition of -66.7

According to the records, this molecule COc1ccc(-n2c(=O)c3c4c(sc3n3c(C)nnc23)CC(C)CC4)cc1 (configuration not stated) displays inhibition of 15.9

###

Reported nuclei count values for a set of molecules
# assay-comment: inhibitors of E-selectin induction by TNFa, primary screen, imaging, HUVEC, immunofluorescence, MLSMR starter and 10KST1 sets (AID 487);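 as to nuclei count: 100% = median nuclei count of all wells on the same plate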
# measurement-parameters: HUVEC TNFalpha-induced E-selectin immunofluorescence imaging, at 2 µM; measured here: cell number, toxicity
Just the number in %, nothing appended.

Please review the following examples before continuing.
INSERT INTO results (molecule, reading) VALUES
  ('CC(C)C1Cc2c(C#N)c(N)n(C)c(=S)c2CO1 (stereo not drawn)', 134),
  ('COC1=CC(=O)CC(C)C12Oc1c(Cl)c(OC)cc(OC)c1C2=O (stereo not drawn)', 122),
  ('COc1ccccc1N(Cc1cc2cccc(C)c2[nH]c1=O)C(=O)C(C)C', 171);

According to the records, this molecule CC1CN(C2CCN(S(=O)(=O)Cc3ccccc3)CC2)CC(C)O1 (stereo not drawn) displays nuclei count of 179

According to the records, this molecule `Cn1c(OCc2cccnc2)nc2c1c(=O)n(Cc1ccc(Cl)cc1)c(=O)n2C` displays nuclei count of 156

###

# assay-comment: DUSP6 inhibitors restoring Erk phosphorylation by chemical complementation, primary imaging in DUSP6-transfected HeLa (AID 609)
# measurement-parameters: HeLa MKP-3 transfected, phospho-Erk imaging KS statistic; measured here: nuclear pErk red intensity z-score; at 10 µM; stronger effect = higher value; cells stimulated with TPA for 15 min
Reported z-score values for a set of compounds
Quick one: just the number, no unit, thanks!

INSERT INTO measurements (compound, reading) VALUES
  ('Cc1ccnc(N2CCN(c3c4c(c(C#N)c5nc6ccccc6n35)CCC4)CC2)c1', 0.491);

According to the records, this compound CCC(CC)C1C(C#N)=C(N)Oc2n[nH]c(C)c21 (stereo not drawn) displays z-score of 0.51

According to the records, this compound `Cn1c(N2CCOCC2)nc2c1c(=O)n(Cc1ccc(Cl)cc1)c(=O)n2C` displays z-score of 0.486

###

# tested-on: Voltage-gated potassium channel subunit beta-2 (Rattus norvegicus)
# assay-comment: KvBeta enzyme negative modulators, primary screen, biochemical, NADPH fluorescence (AID 622);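 also: slope of raw intensity against log time taken from 70 to 1610 s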
# measurement-parameters: recombinant KvBeta, 4-cyanobenzaldehyde reduction, at 10 µM, stronger effect = higher value
Output YES for fluorescence slope not less than -0.4; output NO otherwise.

INSERT INTO assay_data (compound, label) VALUES
  ('CC(C)Cc1[nH]c(=O)c(C#N)c2c1CCCC2', 'YES'),
  ('COc1ccccc1OCC(O)COC(N)=O (stereo not drawn)', 'NO'),
  ('CC1(C(=O)CSc2nc3ccccc3s2)CCC(=O)O1 (stereo not drawn)', 'NO'),
  ('CCC(=O)N[C@@H]1CC(C(C)(C)NC(=O)CC)CC=C1C (stereo partly drawn)', 'YES'),
  ('O=C(O)c1cc2n(n1)C(C(F)(F)F)CC(c1ccccc1)N2 (stereo not drawn)', 'NO'),
  ('CCCOc1cccc(C2/C(=C(/O)c3ccccc3)C(=O)C(=O)N2CCN(C)C)c1 (stereo not drawn)', 'NO'),
  ('CCCOc1cccc(-c2nnc(N)s2)c1', 'NO'),
  ('CC(C)COc1nc2ccccc2nc1C(C#N)C(=O)NC1CCCCC1 (stereo not drawn)', 'NO'),
  ('O=S(=O)(c1ccc2ccccc2c1)N(CC(O)CN1CCOCC1)c1ccccc1 (stereo not drawn)', 'YES'),
  ('COCCNC(=O)c1c(N)n(/N=C/c2cccs2)c2nc3ccccc3nc12', 'YES');

Could you tell me if the measured fluorescence slope of `Cn1ncc(N=Cc2ccccc2)c1C(N)=O` reaches -0.4 or more?
NO

Could you tell me if the measured fluorescence slope of `NCc1ccc(S(N)(=O)=O)cc1` reaches -0.4 or more?
NO

Could you tell me if the measured fluorescence slope of CCCCCCCCNC(C)C(O)c1ccc(SC(C)C)cc1 (stereo not drawn) reaches -0.4 or more?
NO

Could you tell me if the measured fluorescence slope of `CC(C)Cc1nc(N2CCCCC2)c(C#N)c2c1CCC2` reaches -0.4 or more?
NO

Could you tell me if the measured fluorescence slope of `CCC(=O)Oc1ccc(/C(CC)=C(\CC)c2ccc(OC(=O)CC)cc2)cc1` reaches -0.4 or more?
NO

Could you tell me if the measured fluorescence slope of `Cc1onc(-c2ccccc2)c1C(=O)N[C@@H]1C(=O)N2[C@@H]1SC(C)(C)[C@@H]2C(=O)O` reaches -0.4 or more?
NO

Could you tell me if the measured fluorescence slope of `CC(C)CNC(=O)c1c(N)n(/N=C/c2ccccn2)c2nc3ccccc3nc12` reaches -0.4 or more?
NO
